- Test system: MV-4-11 cells (human acute myelogenous leukemia cell line carrying MLL-AF4 mutation)
- assay: Cell proliferation assay, MV-4-11 (CellTiter-Glo)
- Format: cell-based
- settings: Homo sapiens, MV4-11, 72 h, MV-4-11 cells, 3 days treatment, CellTiter-Glo; read-out: GI50
metricName: GI50 (nM)

// known answers, use as guide
{"molecule": "COc1cc(N2CCC(CN3CCC4(CC3)CN(c3ncnnc3Oc3ccc(F)cc3-c3ccnn3C)C4)CC2)nnc1OC", "subjectOfTest": "MV-4-11 cells (human acute myelogenous leukemia cell line carrying MLL-AF4 mutation)", "readingUnit": "nM", "endpointResult": 22}
{"molecule": "CCOc1cc(N2CCC(CN3CCC4(CC3)CN(c3ncnnc3Oc3ccc(F)cc3C(=O)N(CC)C(C)C)C4)CC2)nnc1OCC", "subjectOfTest": "MV-4-11 cells (human acute myelogenous leukemia cell line carrying MLL-AF4 mutation)", "readingUnit": "nM", "endpointResult": 9}
{"molecule": "CCN(C(=O)c1cc(F)ccc1Oc1nncnc1N1CC2(CCN(Cc3ccc4[nH]ncc4c3)CC2)C1)C(C)C", "subjectOfTest": "MV-4-11 cells (human acute myelogenous leukemia cell line carrying MLL-AF4 mutation)", "readingUnit": "nM", "endpointResult": 226}

(I) CCN(C(=O)c1cc(F)ccc1Oc1nncnc1N1CC2(CCN(CC3CCN(c4cccc(C(C)(C)O)n4)CC3)CC2)C1)C(C)C
(II) CCN(C(=O)c1cc(F)ccc1Oc1nncnc1N1CC2(CCN(CC3CCN(c4ccc(N)nn4)CC3)CC2)C1)C(C)C
(III) CCN(C(=O)c1cc(F)ccc1Oc1nncnc1N1CC2(CCN(CC3CCN(C(=O)C4CCC4)CC3)CC2)C1)C(C)C
(IV) O=C(NC1CC1)N1CCC(CN2CCC3(CC2)CN(c2ncnnc2Oc2ccc(F)cc2)C3)CC1
Put the molecules in ascending order of GI50. Return value: ordered labels per request.
I, III, II, IV
(I: 3 nM, III: 31 nM, II: 156 nM, IV: 284 nM)

###

- subjectOfTest: Recombinant human Menin protein (2-610) / MLL polypeptide binding (Homo sapiens (Human), UniProt O00255)
- Sequence (O00255 2-610): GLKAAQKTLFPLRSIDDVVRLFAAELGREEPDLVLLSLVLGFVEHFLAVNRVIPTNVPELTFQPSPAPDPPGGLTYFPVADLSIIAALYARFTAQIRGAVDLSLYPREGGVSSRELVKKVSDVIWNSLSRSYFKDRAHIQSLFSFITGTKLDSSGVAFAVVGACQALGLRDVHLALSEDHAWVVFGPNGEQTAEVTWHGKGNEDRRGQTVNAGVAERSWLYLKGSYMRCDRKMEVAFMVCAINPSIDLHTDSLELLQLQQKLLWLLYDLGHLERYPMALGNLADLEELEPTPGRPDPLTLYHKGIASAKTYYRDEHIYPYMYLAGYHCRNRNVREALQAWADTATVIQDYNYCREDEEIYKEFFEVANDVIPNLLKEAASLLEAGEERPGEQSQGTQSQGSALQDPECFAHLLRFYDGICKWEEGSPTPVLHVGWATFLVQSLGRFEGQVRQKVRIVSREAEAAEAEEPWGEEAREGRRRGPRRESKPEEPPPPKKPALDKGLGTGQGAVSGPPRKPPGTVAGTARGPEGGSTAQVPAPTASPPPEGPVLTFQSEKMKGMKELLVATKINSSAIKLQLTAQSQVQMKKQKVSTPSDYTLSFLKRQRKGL
- assay: Menin and MLL protein binding at a molecular level (fluorescence polarization method)
- settings: inhibition of Menin / MLL polypeptide binding
metricName: IC50 (µM)

{"compound": "CCN(C(=O)c1cc(F)ccc1Oc1nncnc1N1CC2(CCN(CC3CCN(C(=O)Nc4ccccc4F)CC3)CC2)C1)C(C)C", "IC50, µM": 0.0046}

(P) CCN(C(=O)c1cc(F)ccc1Oc1nncnc1N1CC2(CCN(CC3CCN(C(=O)NCc4ccccc4)CC3)CC2)C1)C(C)C
(Q) CCN(C(=O)c1cc(F)ccc1Oc1nncnc1N1CC2(CCN(CC3CCN(C(=O)c4ccccc4F)CC3)CC2)C1)C(C)C
(R) N#Cc1ccc(N2CCC(CN3CCC4(CC3)CN(c3ncnnc3Oc3ccc(F)cc3C3=C(F)C(O)CCC3)C4)CC2)nc1 (stereo not drawn)
Please list the entries, largest IC50 first. Present the labels in the sequence the task asks for.
R, Q, P

###

- System: MV-4-11 cells (human acute myelogenous leukemia cell line carrying MLL-AF4 mutation)
- assay: Cell proliferation assay, MV-4-11 (CellTiter-Glo)
- Type: cell-based
- settings: Homo sapiens, MV4-11, 72 h, MV-4-11 cells, 3 days treatment, CellTiter-Glo; read-out: GI50
metricName: GI50 (nM)

Some solved cases for reference:
{"compound": "CCN(C(=O)c1cc(F)ccc1Oc1nnc(C)nc1N1CC2(CCN(Cc3ccc4c(cc(C#N)n4CCO)c3C)CC2)C1)C(C)C", "subjectOfTest": "MV-4-11 cells (human acute myelogenous leukemia cell line carrying MLL-AF4 mutation)", "metricName": "GI50", "readingUnit": "nM", "endpointResult": 54}
{"compound": "CCN(C(=O)c1cc(F)ccc1Oc1nncnc1N1CC2(CCN(C(=O)C3CCN(c4ccccn4)CC3)CC2)C1)C(C)C", "subjectOfTest": "MV-4-11 cells (human acute myelogenous leukemia cell line carrying MLL-AF4 mutation)", "metricName": "GI50", "readingUnit": "nM", "endpointResult": 76}

(I) CCN(C(=O)c1cc(F)ccc1Oc1nncnc1N1CC2(CCN(CC3CCN(c4ccnnc4)CC3)CC2)C1)C(C)C
(II) CCNC(=O)c1cc(F)ccc1Oc1nncnc1N1CC2(CCN(CC3CCN(c4cc(OC)c(OC)nn4)CC3)CC2)C1
(III) CCN(C(=O)c1cc(F)ccc1Oc1nncnc1N1CCC(C2(NCc3ccc4[nH]c(C#N)cc4c3C)CC2)C1)C(C)C (stereo not shown)
(IV) CCN(C(=O)c1cc(F)ccc1Oc1nncnc1N1CC2(CCN(CC3CCN(c4ccc(C#N)cn4)CC3)CC2)C1)C(C)C
(V) CCN(C(=O)c1cc(F)ccc1Oc1nncnc1N1CC2(CCN(Cc3ccc4[nH]c(C#N)cc4c3C)CC2)C1)C(C)C
Put the entries in order of GI50, starting with the largest number. Answer format: the labels, in the requested order.
II, III, I, IV, V

###

- Test system: MV-4-11 cells (human acute myelogenous leukemia cell line carrying MLL-AF4 mutation)
- assay: Cell proliferation assay, MV-4-11 (CellTiter-Glo)
- Type: cell-based
- settings: Homo sapiens, MV4-11, 72 h, MV-4-11 cells, 3 days treatment, CellTiter-Glo; read-out: GI50
metricName: GI50 (nM)

{"smilesString": "CCN(C(=O)c1cc(F)ccc1Oc1nncnc1N1CC(C2(N(CCO)Cc3ccc4[nH]c(C#N)cc4c3C)CC2)C1)C(C)C", "metricName": "GI50", "readingUnit": "nM", "endpointResult": 49}

(1) CCN(C(=O)c1cc(F)ccc1Oc1nncnc1N1CC2(CCN(CC3CCN(c4nc(C#N)co4)CC3)CC2)C1)C(C)C
(2) C#Cc1ccc(N2CCC(CN3CCC4(CC3)CN(c3ncnnc3Oc3ccc(F)cc3C(=O)N(CC)C(C)C)C4)CC2)nn1
(3) CCN(C(=O)c1cc(F)ccc1Oc1nncnc1N1CC2(CCN(CC3CCN(c4cc5c(nn4)OCCO5)CC3)CC2)C1)C(C)C
In this exercise, place the 3 compounds in ascending sequence of their recorded GI50. Kindly provide the labels arranged according to the requested ordering.
2, 1, 3
(2: 2 nM, 1: 16 nM, 3: 60 nM)

###

- subjectOfTest: Recombinant human Menin protein (2-610) / MLL polypeptide binding (Homo sapiens (Human), UniProt O00255)
- assay: Menin and MLL protein binding at a molecular level (fluorescence polarization method)
- settings: inhibition of Menin / MLL polypeptide binding
- Experimental: Example 3: Determination of the Activity of the Compounds of the Present Invention on Menin and MLL Protein Binding at a Molecular Level (Fluorescence Polarization Method) 1. Reagents, Materials and Instruments: […] The vertical polarization S value and the horizontal polarization P value (excitation wavelength was 480 nm, and emission wavelength was 535 nm) were measured with Envision. […]
pIC50: −log10 of the molar value.
metricName: pIC50

The cases that follow already have their pIC50 on record.
{"smilesString": "CCN(C(=O)c1cc(F)ccc1Oc1nncnc1N1CC2(CCN(Cc3ccc(NS(C)(=O)=O)cc3C)CC2)C1)C(C)C", "pIC50": 7.63}
{"smilesString": "CCN(C(=O)c1cc(F)ccc1Oc1nncnc1N1CC2(CCN(CC3CCN(c4cccc(C(N)=O)n4)CC3)CC2)C1)C(C)C", "pIC50": 8.64}

(a) C#Cc1ccc(N2CCC(CN3CCC4(CC3)CN(c3ncnnc3Oc3ccc(F)cc3C(=O)N(CC)C(C)C)C4)CC2)nn1
(b) CCN(C(=O)c1cc(F)ccc1Oc1nncnc1N1CC2(CCN(Cc3ccc4oc(C)cc4c3)CC2)C1)C(C)C
(c) N#Cc1ccc(N2CCC(CN3CCC4(CC3)CN(c3ncnnc3Oc3ccc(F)cc3C3=CCOCC3)C4)CC2)nc1
(d) CCN(C(=O)c1cc(F)ccc1Oc1nncnc1N1CC2(CCN(CC3CCN(C(=O)C4CCC4)CC3)CC2)C1)C(C)C
Please list the entries, largest pIC50 first. Sort and list the labels as requested.
a, d, b, c

###

- System: MV-4-11 cells (human acute myelogenous leukemia cell line carrying MLL-AF4 mutation)
- assay: Cell proliferation assay, MV-4-11 (CellTiter-Glo)
- Type: cell-based
- settings: Homo sapiens, MV4-11, 72 h, MV-4-11 cells, 3 days treatment, CellTiter-Glo; read-out: GI50
metricName: GI50 (nM)

{"smilesString": "CCN(C(=O)c1cc(F)ccc1Oc1nncnc1N1CC2(CCN(CC3CCN(C(=O)c4cnn(C)c4)CC3)CC2)C1)C(C)C", "subjectOfTest": "MV-4-11 cells (human acute myelogenous leukemia cell line carrying MLL-AF4 mutation)", "GI50 / nM": 113}

(1) CCN(C(=O)c1cc(F)ccc1Oc1nncnc1N1CC2(CCN(CC3CCN(C(=O)NC(C)(C)C)CC3)CC2)C1)C(C)C
(2) CCN(C(=O)c1cc(F)ccc1Oc1nncnc1N1CCC2(CN(CC3CCN(c4cc(OC)c(OC)nn4)CC3)C2)C1)C(C)C
Which gives the smaller GI50 number: 1 or 2 ? Lab log: write the label of the selected item as the result.
2
